Target Or System: HLA-A*2401 (purified HLA class I molecule) (human)
Experimental Details: competition with 125I-labelled standard peptide for purified HLA, gel filtration
Property Measured: relative binding ratio (IC50 of standard peptide / IC50 of test peptide)

LYFEKGEYF [PAP position 318, 9 amino acids]
2.5
RFAELVGPVI [PAP position 355, 10 amino acids]
0.0037
LFPPEGVSIW [PAP position 123, 10 amino acids]
0.014
RFQELESETL [PAP position 163, 10 amino acids]
0.0001

I = PYASCHLTEL [PAP position 309, 10 amino acids]
II = LYCESVHNF [PAP position 213, 9 amino acids]
III = SWPQGFGQL [PAP position 62, 9 amino acids]
IV = VFRHGDRSPI [PAP position 41, 10 amino acids]
Exercise: Rank order required: relative binding ratio (IC50 of standard peptide / IC50 of test peptide), descending. The labels, placed in the requested order, form the answer.
Solution: II, I, III, IV
(II: 0.44, I: 0.024, III: 0.0013, IV: 0.0005)

The reported measurements were obtained from patent US20040037843A1.
